Target: p53/hDM2 (Homo sapiens, UniProt Q00987)
Test: competition fluorescence anisotropy assay, displacement of p53 15-31 Flu from hDM2
Type: binding
Conditions: Fig. 4b; same assay; unit inferred; † non-specific interactions observed (11c); read-out: IC50 (Fig. 4b, numbers inside wedges)
In this section, each of the compounds is paired with its reported pIC50.
pIC50 is a log-scale quantity: -log10 of the concentration expressed in molar.

Consider the reported pIC50 for these compounds:
[[record]]
compound = "O=C(CC(c1ccc(Cl)s1)c1c[nH]c2ccc(Cl)cc12)NCCc1ccccn1 (stereo not shown)"
meas_value = 5.10

[[record]]
compound = "CCOC(=O)CCNC(=O)c1[nH]c2ccc(Cl)cc2c1C(CC(=O)NCCc1ccccn1)c1ccc(Cl)s1 (stereo not shown) [11c]"
meas_value = 5.52

[[record]]
compound = "O=C(CC(c1ccc(Cl)s1)c1c(C(=O)O)[nH]c2ccc(Cl)cc12)NCCc1ccccn1 (stereo not shown) [11b]"
meas_value = 5.52


We next turn to a different compound, shown below.
Name the recorded pIC50 for O=C(CC(c1ccc(Cl)s1)c1c(Br)[nH]c2cc(Cl)ccc12)NCCc1ccccn1 (stereo not shown) [11a] .
5.70

* * *

Target: GKAP/SHANK1-PDZ (Homo sapiens, UniProt Q9Y566)
Construct: Shank 1 PDZ domain (656-762) was expressed and purified as described
Assay: fluorescence anisotropy competition assay GKAP/SHANK1-PDZ
Conditions: FITC-GKAP 50 nM, SHANK1-PDZ 1 μM, pH 7.4, 20 mM Tris, 150 mM NaCl, 0.01% Triton-X-100
measurement_name: pIC50
pIC50 is a log-scale quantity: -log10 of the concentration expressed in molar.

Name the recorded pIC50 for NS(=O)(=O)c1ccc2c(c1)[C@@H]1C=CC[C@@H]1[C@H](C(=O)O)N2 .
3.41

* * *

Target: p53/hDM2 (Homo sapiens, UniProt Q00987)
Experiment: competition fluorescence anisotropy assay, displacement of p53 15-31 Flu from hDM2
Format: binding
Settings: Fig. 4b; fluorescence anisotropy competition: 150 nM hDM2 and p53 15-31 Flu, 40 mM phosphate, pH 7.4, 200 mM NaCl, 0.02 mg/ml BSA; > 150 μM; read-out: IC50 (Fig. 4b)
measurement_name: IC50 (nM)
Write down the numeric answer in nM and omit the unit.

[[record]]
molecule = "CC(C(=O)N1CCC(c2ccccn2)C1)C(c1ccc(Cl)s1)c1c[nH]c2cc(Cl)ccc12 (stereo not drawn)"
value_unit = "nM"
meas_value = 1000

[[record]]
molecule = "O=C(CC(c1ccc(Cl)s1)c1c(C(=O)O)[nH]c2ccc(Cl)cc12)NC1CC1c1ccccc1 (stereo not drawn)"
value_unit = "nM"
meas_value = 2000


Name the recorded IC50 for CC(C)(C(=O)NCCc1ccccn1)C(c1ccc(Cl)s1)c1c[nH]c2ccc(Cl)cc12 (stereo not drawn) .
8000

* * *

In this section, each of the compounds is paired with its reported ligand efficiency.
Target: p53/hDM2 (Homo sapiens, UniProt Q00987)
Test: competition fluorescence anisotropy assay, displacement of p53 15-31 Flu from hDM2
Type: binding
Settings: LE = 1.4 × pIC50/nHA, from p53/hDM2 fluorescence anisotropy IC50
Response field accepts a number only; no unit should be typed.

Consider the reported ligand efficiency for these compounds:
[[record]]
compound = "O=C(CC(c1ccc(Cl)s1)c1c[nH]c2ccc(Cl)cc12)NCCc1ccccn1 (stereo not shown)"
meas_value = 0.24

[[record]]
compound = "O=C(CC(c1ccc(Cl)s1)c1c(C(=O)O)[nH]c2ccc(Cl)cc12)NCCc1ccccn1 (stereo not shown) [11b]"
meas_value = 0.26

[[record]]
compound = "O=C(CC(c1ccc(Cl)s1)c1c(Br)[nH]c2cc(Cl)ccc12)NCCc1ccccn1 (stereo not shown) [11a]"
meas_value = 0.28


We next turn to a different compound, shown below.
Name the recorded ligand efficiency for CC(C(=O)NCCc1ccccn1)C(c1ccc(Cl)s1)c1c[nH]c2ccc(Cl)cc12 (stereo not drawn) [anti-10] .
0.26

This collection of values is drawn from paper PMC8179539.
